biological target: thrombin (human, UniProt P00734;P00734 328-363;364-622); experiment: organic electrochemical transistor
Measured Property: pKd
One number for each entry, as −log10 of the molar value.

Request the reported pKd associated with TTTTTAGTCCGTGGTAGGGCAGGTTGGGGTGACT (ssDNA, 5' DBCO-TEG) [DBCO-HD22 thrombin aptamer]
6.99
